B1: Hairpin Ribozyme (parent)
chain: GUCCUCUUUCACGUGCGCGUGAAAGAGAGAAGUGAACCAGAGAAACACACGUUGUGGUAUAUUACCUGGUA

variants of: B1; test: self-cleavage, relative activity (ratio to wild type); higher = more cleavage; co-transcriptional
# cutoff 0.2 applies to self-cleavage; >= gives label 1, < gives label 0

Past entries and their recorded results:
variantDescriptor: A49C G56A
categoryLabel: label 0
//
variantDescriptor: C12U U70G
categoryLabel: label 1
//
variantDescriptor: A24C A49G
categoryLabel: label 1
//
variantDescriptor: C48U C50G
categoryLabel: label 0
//
variantDescriptor: C37U C48U
categoryLabel: label 0

Moving on to the next variant.
Qu. Please indicate if the recorded self-cleavage for C3A C66A meets or exceeds 0.2.
Ans. label 0
